target: T1, hFc-tagged human 4-1BB extracellular domain protein (4-1BB-hFc) (human, UniProt Q07011 24-186, limits assumed); assay: ELISA, coated human 4-1BB-hFc; Ab 0.0006 ug/ml
T1 construct: also called immunogen A; 4-1BB^ECD-hFc; not shown: human IgG Fc fragment (hFc) of the pCpC vector
Collected OD450 nm values appear next to each entry.

>  <binder>
172E3E3 (antibody, V domains shown) VH: QVQLQESGPGLVKPSGTLSLTCAVSGGSISSSNWWSWVRQPPGKGLEWIGEIYHSGSTNYNPSLKSRVTISVDKSKNQLSLNLSSVTAADTAVYYCARQGGVAGTLYWYFDLWGRGTLVTVSS VL: DIVMTQSPLSLPVTPGEPASISCRSSQGLLHSNGYNYLDWYLQKPGQSPQLLIYLGSNRASGVPDRFIGSGSGTDFTLKIRRVEAEDVGVYYCMQVLQTPWTFGQGTKVEIK

>  <OD450 nm>
0.2 OD450 nm

$$$$
>  <binder>
119B6G5 (antibody, V domains shown) VH: EVQLLESGGGLVQPGGSLRLSCAASGFTFSNYAMSWVRQGPGKGLEWVSTIIGSGDSTYYTDSVKGRFTISRDNSKNTLFLQMNSLRAEDTAVYYCARDKSGWYYFDYWGQGTLVTVSS VL: DIQMTQSPSTLSASVGDRVTITCRASQSISNWLAWYQQKPGKAPKLLIYKASSLESGVPSRFSGSGSGTEFTLTISSLQPDDFATYYCQQYNDYFPITFGQGTRLEIK

>  <OD450 nm>
0.11 OD450 nm

$$$$
>  <binder>
118F3A2 (antibody, V domains shown) VH: QVQLQQWGAGLLKPSETLSLTCGVYGGSFSTNYWSWIRQSPGKGLEWIGEINHSGNTEYNPSLKSRLTISIDTSKNQFSLKLTSVTAADTAVYYCARMGYHSPSFDFWGQGVLVTVSS VL: KIVMTQSPATLSVSPGERATLPCRVSQGIGSNLAWYQQKPGQAPRLLIYGASTRATGVPARFSGSGSGSEFTLTISSLQSEDLALYYCQQYNNWPLTFGGGTKVEIK

>  <OD450 nm>
0.44 OD450 nm

$$$$

Where do these numbers come from? They come from patent US20200347144A1.
